experimental.system: SIK2 (Homo sapiens)
Sequence (Q9H0K1 whole entry, species assumed): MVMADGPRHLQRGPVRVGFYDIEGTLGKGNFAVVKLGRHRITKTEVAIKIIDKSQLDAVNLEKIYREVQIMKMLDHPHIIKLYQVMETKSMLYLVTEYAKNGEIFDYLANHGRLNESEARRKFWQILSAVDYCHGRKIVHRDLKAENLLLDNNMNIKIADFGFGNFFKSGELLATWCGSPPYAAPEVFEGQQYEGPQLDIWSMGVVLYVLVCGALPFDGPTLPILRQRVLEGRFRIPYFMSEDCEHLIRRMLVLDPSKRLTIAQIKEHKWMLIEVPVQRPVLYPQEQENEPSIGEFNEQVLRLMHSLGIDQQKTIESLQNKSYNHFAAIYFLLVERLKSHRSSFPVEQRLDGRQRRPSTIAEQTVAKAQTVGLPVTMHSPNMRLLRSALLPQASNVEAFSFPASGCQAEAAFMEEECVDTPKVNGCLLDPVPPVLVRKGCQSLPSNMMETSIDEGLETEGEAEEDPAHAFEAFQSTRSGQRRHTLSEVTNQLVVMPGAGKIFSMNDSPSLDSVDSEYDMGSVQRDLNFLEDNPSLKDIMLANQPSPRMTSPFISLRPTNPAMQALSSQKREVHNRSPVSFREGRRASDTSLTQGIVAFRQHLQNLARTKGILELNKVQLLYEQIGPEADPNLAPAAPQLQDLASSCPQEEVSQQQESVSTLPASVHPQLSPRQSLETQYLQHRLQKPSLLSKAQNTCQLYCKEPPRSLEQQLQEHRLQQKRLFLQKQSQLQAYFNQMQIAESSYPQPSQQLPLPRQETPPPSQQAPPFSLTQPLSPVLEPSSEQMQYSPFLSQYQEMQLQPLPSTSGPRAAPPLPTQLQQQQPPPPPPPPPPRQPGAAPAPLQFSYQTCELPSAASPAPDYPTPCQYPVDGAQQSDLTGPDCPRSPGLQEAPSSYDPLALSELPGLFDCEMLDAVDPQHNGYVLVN
procedure.text: SIK2 Enzymatic Assay High Version 2 (High ATP)
Type: biochemical
experimental.conditions: enzyme 6 nM, 6 mM ATP and 400 μM HDAC5tide (each 2× final concentration); 30 minutes pre-incubation, 2 hours; ADP-Glo Max luminescence; read-out: SIK2 high ATP IC50 (μM) (Test Example 2)
For each record, write down the corresponding IC50.
Write the answer as a number in µM, unit excluded.

For record Cc1cc(-c2ccn3nc(NC(=O)C4CC4)cc3c2)c(O[C@@H]2CCC[C@H](O)C2)cn1 (single isomer, unassigned) [Example 602] the listed IC50 is 0.113

For record CCC1(COc2cnc(C)cc2-c2ccn3nc(Nc4cc(C)nc(C)n4)cc3c2)COC1 [Example 273] the listed IC50 is 0.037

For record Cc1cc(-c2ccn3nc(Nc4cc(C)nc(C)n4)cc3c2)c(OCC2(C#N)CC2)cn1 [Example 560] the listed IC50 is 0.0616

For record CN1CC(Oc2cnc(Cl)cc2-c2ccn3nc(NC(=O)C4CC4)cc3c2)C1 [Example 491] the listed IC50 is 0.0152

For record COC(=O)c1ccc(Nc2cc3cc(-c4cc(C)ncc4OCC(C)(C)O)ccn3n2)cc1OC [Example 642] the listed IC50 is 0.00171

For record Cc1cc(-c2ccn3nc(Nc4cc(C)nc(C)n4)cc3c2)c(OC[C@@H](O)C2(C)CC2)cn1 (single isomer, unassigned) [Example 549] the listed IC50 is 0.0416

For record CCc1cc(-c2ccn3nc(Nc4cc(C)nc(C)n4)cc3c2)c(OCC(C)(C)C#N)cn1 [Example 328] the listed IC50 is 0.0381

For record Cc1cc(-c2ccn3nc(Nc4cc(C)c(=O)[nH]n4)cc3c2)c(OCC(C)(C)O)cn1 [Example 208] the listed IC50 is 0.00856

For record Cc1cc(-c2ccn3nc(Nc4cc(C)c(=O)n(C)n4)cc3c2)c(OCC(C)(C)C#N)cn1 [Example 269] the listed IC50 is 0.00153

For record Cc1cc(-c2ccn3nc(Nc4cc(C)nc(C(C)(C)C)n4)cc3c2)c(OC[C@H]2OCC[C@@H]2O)cn1 [Example 298] the listed IC50 is 0.00667

For record Cc1cc(-c2ccn3nc(Nc4cc(C)c(=O)n(C5CC5)n4)cc3c2)c(OC[C@@H]2COCCO2)cn1 [Example 561] the listed IC50 is 0.0619

For record Cc1cc(-c2ccn3nc(NC(=O)C4CC4)cc3c2)c(OCC2(NC3CC3)CCC2)cn1 [Example 157] the listed IC50 is 0.0708

For record Cc1cc(-c2ccn3nc(Nc4cc(C)c(=O)n(C)n4)cc3c2)c(OC[C@@](C)(N)C(F)(F)F)cn1 (single isomer, unassigned) [Example 311] the listed IC50 is 0.0057

For record Cc1cc(-c2ccn3nc(Nc4cc(C)nc(C)n4)cc3c2)c(OC[C@H]2C[C@H](O)CO2)cn1 [Example 609] the listed IC50 is 0.0797

For record Cc1cc(-c2ccn3nc(Nc4cc(C)c(C(=O)NC5CC5)c(C)c4)cc3c2)c(OCC(C)(C)O)cn1 [Example 326] the listed IC50 is 0.0362

For record CNC(=O)c1cc(C)nc(Nc2cc3cc(-c4cc(OC(F)F)ncc4OCC(C)(C)C#N)ccn3n2)c1 [Example 715] the listed IC50 is 0.011
